System: keratinocytes (HaCaT)
assay protocol: Cytotoxicity, MTT assay
Type: cell-based, human
condition details: Keratinocytes (HaCaT), MTT, 24 h
Where a SMILES comes first, the peptide text is derived from it. [ ]: non-standard residue; d: D form. The star is where a group is joined. Palmitoyl = CCCCCCCCCCCCCCCC(=O)*; AEEA = NCCOCCOCC(=O)O; βAla = NCCC(=O)O
result type: IC50 (mg/L)
Your answer is read as mg/L, so omit the unit and give the number.

Observed IC50, keratinocytes (HaCaT), CCCCCCCCCCCCCCCC(=O)NCCC(=O)N[C@@H](Cc1c[nH]cn1)C(=O)NCCOCCOCC(=O)N[C@H](C(=O)N[C@@H](CCCCN)C(=O)N[C@@H](CCCCN)C(=O)N[C@H](C(=O)N[C@@H](CC(C)C)C(=O)N[C@@H](CO)C(=O)N[C@@H](CCCCN)C(=O)N[C@H](C(=O)N[C@@H](CCCCN)C(=O)N[C@@H](CCCCN)C(=O)N[C@@H](CC(C)C)C(=O)N[C@@H](CC(C)C)C(N)=O)[C@@H](C)CC)[C@@H](C)CC)[C@@H](C)CC [C16-CAR-PEG-DK5] ({Palmitoyl-βAla}-H[AEEA]IKKILSKIKKLL-NH2) : 1

Observed IC50, keratinocytes (HaCaT), CCCCCCCCCCCCCCCC(=O)N[C@H](C(=O)N[C@@H](CCCCN)C(=O)N[C@@H](CCCCN)C(=O)N[C@H](C(=O)N[C@@H](CC(C)C)C(=O)N[C@@H](CO)C(=O)N[C@@H](CCCCN)C(=O)N[C@H](C(=O)N[C@@H](CCCCN)C(=O)N[C@@H](CCCCN)C(=O)N[C@@H](CC(C)C)C(=O)N[C@@H](CC(C)C)C(N)=O)[C@@H](C)CC)[C@@H](C)CC)[C@@H](C)CC [Compound C16-DK5] (Palmitoyl-IKKILSKIKKLL-NH2) : 5

----------
System: B. cereus PCM 482
assay protocol: MIC, broth microdilution
Format: cell-based, Bacillus cereus
condition details: B. cereus PCM 482, 24 h
Where a SMILES comes first, the peptide text is derived from it. [ ]: non-standard residue; d: D form. The star is where a group is joined. Palmitoyl = CCCCCCCCCCCCCCCC(=O)*; Lauroyl = CCCCCCCCCCCC(=O)*; Pentanoyl = CCCCC(=O)*; AEEA = NCCOCCOCC(=O)O; Ahx = NCCCCCC(=O)O; βAla = NCCC(=O)O
Kindly state MIC100 for each of the entries shown.

// CC[C@H](C)[C@H](NC(=O)COCCOCCNC(=O)[C@H](Cc1c[nH]cn1)NC(=O)CCNC(=O)CCCCCN)C(=O)N[C@@H](CCCCN)C(=O)N[C@@H](CCCCN)C(=O)N[C@H](C(=O)N[C@@H](CC(C)C)C(=O)N[C@@H](CO)C(=O)N[C@@H](CCCCN)C(=O)N[C@H](C(=O)N[C@@H](CCCCN)C(=O)N[C@@H](CCCCN)C(=O)N[C@@H](CC(C)C)C(=O)N[C@@H](CC(C)C)C(N)=O)[C@@H](C)CC)[C@@H](C)CC [AHX-CAR-PEG-DK5] (H-[Ahx][βAla]H[AEEA]IKKILSKIKKLL-NH2) : MIC100 value = >50 µg/mL

// CCCCCCCCCCCCCCCC(=O)N[C@H](C(=O)N[C@@H](CCCCN)C(=O)N[C@@H](CCCCN)C(=O)N[C@H](C(=O)N[C@@H](CC(C)C)C(=O)N[C@@H](CO)C(=O)N[C@@H](CCCCN)C(=O)N[C@H](C(=O)N[C@@H](CCCCN)C(=O)N[C@@H](CCCCN)C(=O)N[C@@H](CC(C)C)C(=O)N[C@@H](CC(C)C)C(N)=O)[C@@H](C)CC)[C@@H](C)CC)[C@@H](C)CC [Compound C16-DK5] (Palmitoyl-IKKILSKIKKLL-NH2) : MIC100 value = >50 µg/mL

// CCCCCCCCCCCC(=O)NCCC(=O)N[C@@H](Cc1c[nH]cn1)C(=O)NCCOCCOCC(=O)N[C@H](C(=O)N[C@@H](CCCCN)C(=O)N[C@@H](CCCCN)C(=O)N[C@H](C(=O)N[C@@H](CC(C)C)C(=O)N[C@@H](CO)C(=O)N[C@@H](CCCCN)C(=O)N[C@H](C(=O)N[C@@H](CCCCN)C(=O)N[C@@H](CCCCN)C(=O)N[C@@H](CC(C)C)C(=O)N[C@@H](CC(C)C)C(N)=O)[C@@H](C)CC)[C@@H](C)CC)[C@@H](C)CC [C12-CAR-PEG-DK5] ({Lauroyl-βAla}-H[AEEA]IKKILSKIKKLL-NH2) : MIC100 value = >50 µg/mL

// CCCCCCCCCCCCCCCC(=O)NCCC(=O)N[C@@H](Cc1c[nH]cn1)C(=O)NCCOCCOCC(=O)N[C@H](C(=O)N[C@@H](CCCCN)C(=O)N[C@@H](CCCCN)C(=O)N[C@H](C(=O)N[C@@H](CC(C)C)C(=O)N[C@@H](CO)C(=O)N[C@@H](CCCCN)C(=O)N[C@H](C(=O)N[C@@H](CCCCN)C(=O)N[C@@H](CCCCN)C(=O)N[C@@H](CC(C)C)C(=O)N[C@@H](CC(C)C)C(N)=O)[C@@H](C)CC)[C@@H](C)CC)[C@@H](C)CC [C16-CAR-PEG-DK5] ({Palmitoyl-βAla}-H[AEEA]IKKILSKIKKLL-NH2) : MIC100 value = >50 µg/mL

// CCCCC(=O)N[C@H](C(=O)N[C@@H](CCCCN)C(=O)N[C@@H](CCCCN)C(=O)N[C@H](C(=O)N[C@@H](CC(C)C)C(=O)N[C@@H](CO)C(=O)N[C@@H](CCCCN)C(=O)N[C@H](C(=O)N[C@@H](CCCCN)C(=O)N[C@@H](CCCCN)C(=O)N[C@@H](CC(C)C)C(=O)N[C@@H](CC(C)C)C(N)=O)[C@@H](C)CC)[C@@H](C)CC)[C@@H](C)CC [Compound C5-DK5] (Pentanoyl-IKKILSKIKKLL-NH2) : MIC100 value = 12.5 µg/mL

----------
Test system: S. aureus PCM 2054
assay protocol: MIC, broth microdilution
Type: cell-based, Staphylococcus aureus
condition details: S. aureus PCM 2054, standard Mueller-Hinton broth, 24 h
Where a SMILES comes first, the peptide text is derived from it. [ ]: non-standard residue; d: D form. The star is where a group is joined. Palmitoyl = CCCCCCCCCCCCCCCC(=O)*; Lauroyl = CCCCCCCCCCCC(=O)*; Pentanoyl = CCCCC(=O)*; AEEA = NCCOCCOCC(=O)O; βAla = NCCC(=O)O
result type: MIC100

Consider the worked cases shown below.
# compound, test target, obs value
rows = [
    ("CCCCCCCCCCCCCCCC(=O)NCCC(=O)N[C@@H](Cc1c[nH]cn1)C(=O)O [Compound C16-CAR, CH3(CH2)14C(O)-βAH]", "S. aureus PCM 2054", "Non-inhibitory"),
    ("CCCCC(=O)NCCC(=O)N[C@@H](Cc1c[nH]cn1)C(=O)O [Compound C5-CAR, CH3(CH2)3C(O)-βAH]", "S. aureus PCM 2054", "Non-inhibitory"),
    ("CCCCCCCCCCCCCCCC(=O)N[C@H](C(=O)N[C@@H](CCCCN)C(=O)N[C@@H](CCCCN)C(=O)N[C@H](C(=O)N[C@@H](CC(C)C)C(=O)N[C@@H](CO)C(=O)N[C@@H](CCCCN)C(=O)N[C@H](C(=O)N[C@@H](CCCCN)C(=O)N[C@@H](CCCCN)C(=O)N[C@@H](CC(C)C)C(=O)N[C@@H](CC(C)C)C(N)=O)[C@@H](C)CC)[C@@H](C)CC)[C@@H](C)CC [Compound C16-DK5] (Palmitoyl-IKKILSKIKKLL-NH2)", "S. aureus PCM 2054", ">50 µg/mL"),
    ("CCCCCCCCCCCC(=O)NCCC(=O)N[C@@H](Cc1c[nH]cn1)C(=O)NCCOCCOCC(=O)N[C@H](C(=O)N[C@@H](CCCCN)C(=O)N[C@@H](CCCCN)C(=O)N[C@H](C(=O)N[C@@H](CC(C)C)C(=O)N[C@@H](CO)C(=O)N[C@@H](CCCCN)C(=O)N[C@H](C(=O)N[C@@H](CCCCN)C(=O)N[C@@H](CCCCN)C(=O)N[C@@H](CC(C)C)C(=O)N[C@@H](CC(C)C)C(N)=O)[C@@H](C)CC)[C@@H](C)CC)[C@@H](C)CC [C12-CAR-PEG-DK5] ({Lauroyl-βAla}-H[AEEA]IKKILSKIKKLL-NH2)", "S. aureus PCM 2054", "6.25 µg/mL"),
    ("CCCCC(=O)NCCC(=O)N[C@@H](Cc1c[nH]cn1)C(=O)NCCOCCOCC(=O)N[C@H](C(=O)N[C@@H](CCCCN)C(=O)N[C@@H](CCCCN)C(=O)N[C@H](C(=O)N[C@@H](CC(C)C)C(=O)N[C@@H](CO)C(=O)N[C@@H](CCCCN)C(=O)N[C@H](C(=O)N[C@@H](CCCCN)C(=O)N[C@@H](CCCCN)C(=O)N[C@@H](CC(C)C)C(=O)N[C@@H](CC(C)C)C(N)=O)[C@@H](C)CC)[C@@H](C)CC)[C@@H](C)CC [C5-CAR-PEG-DK5] ({Pentanoyl-βAla}-H[AEEA]IKKILSKIKKLL-NH2)", "S. aureus PCM 2054", ">50 µg/mL"),
]

Now look at this entry.
Observed MIC100, S. aureus PCM 2054, CCCCCCCCCCCCCCCC(=O)NCCC(=O)N[C@@H](Cc1c[nH]cn1)C(=O)NCCOCCOCC(=O)N[C@H](C(=O)N[C@@H](CCCCN)C(=O)N[C@@H](CCCCN)C(=O)N[C@H](C(=O)N[C@@H](CC(C)C)C(=O)N[C@@H](CO)C(=O)N[C@@H](CCCCN)C(=O)N[C@H](C(=O)N[C@@H](CCCCN)C(=O)N[C@@H](CCCCN)C(=O)N[C@@H](CC(C)C)C(=O)N[C@@H](CC(C)C)C(N)=O)[C@@H](C)CC)[C@@H](C)CC)[C@@H](C)CC [C16-CAR-PEG-DK5] ({Palmitoyl-βAla}-H[AEEA]IKKILSKIKKLL-NH2) : >50 µg/mL
